# Species on record: Rattus norvegicus
# protocol.description: In vitro inhibition against neuronal uptake of norepinephrine in rat hypothalamus
# Assay type: functional
pIC50: −log10 of the molar value.
endpoint: pIC50

| compound | endpoint | readout.number |
| --- | --- | --- |
| CC1=Nc2ccccc2CC(c2ccccc2)N1C.Cl (stereo unspecified) [DAZEPINIL HYDROCHLORIDE] | pIC50 | 6.05 |

* * *

# protocol.description: Compound was tested in vitro for its ability to displace [3H]quinuclidine benzylate (QNB) from Muscarinic acetylcholine receptor on rat whole brain membranes.
# Assay type: cell membranes
pIC50: −log10 of the molar value.

| input.smiles | pIC50 |
| --- | --- |
| CN(C)CCC=C1c2ccccc2CCc2ccccc21 | 5.52 |
